The measurements presented in this section are drawn from patent US6355630B1.

- System: Ishikawa uterine cells
- assay_protocol: Ishikawa cell alkaline phosphatase test procedure
- Type: cell-based, human
- assay_setup: 1 uM compound + 1 nM E2, antagonist mode, 48 h
Counter-ions that a name gives are not always drawn.
Kindly apply the following: TRUE if Alkaline phosphatase activity, percent of response related to 1 nM 17β-estradiol is less than 70%, FALSE in every other case.

Some entries whose results are on file:
CCCCN(C)C(=O)CCCCCCCCCCS[C@@H]1Cc2cc(O)ccc2[C@H]2CC[C@]3(C)[C@@H](O)CC[C@H]3[C@@H]21; TRUE
C[C@]12CC[C@@H]3c4ccc(O)cc4C[C@@H](Sc4ccc(O)cc4)[C@H]3[C@@H]1CC[C@@H]2O; TRUE
CCCCN(C)C(=O)CCCCCCCCCCS[C@@H]1C(=O)c2cc(O)ccc2[C@H]2CC[C@]3(C)[C@@H](O)CC[C@H]3[C@H]12; TRUE
CC(=O)O[C@H]1CC[C@H]2[C@@H]3[C@H](Sc4ccc(O)cc4)C(=O)c4cc(O)ccc4[C@H]3CC[C@]12C; FALSE
CC(=O)O[C@H]1CC[C@H]2[C@@H]3[C@H](Sc4ccc(Br)cc4)C(=O)c4cc(O)ccc4[C@H]3CC[C@]12C; FALSE

From here, focus on the item given below.
Would you kindly verify if Alkaline phosphatase activity, percent of response related to 1 nM 17β-estradiol of CC12CCC3c4ccc(O)cc4CC(Sc4ccc(-c5ccc(C=CC(=O)O)cc5)cc4)C3C1CCC2O (stereo not drawn) [Example 13, sodium salt] is strictly less than 70%? FALSE
